Target: T1, Human IL-17A (human, UniProt Q16552 20-155, limits assumed)
T1 construct: Biotinylated in the ELISAs; purified recombinant protein in SPR; also called hIL17A; hIL-17
T1 sequence (Q16552 20-155 limits assumed): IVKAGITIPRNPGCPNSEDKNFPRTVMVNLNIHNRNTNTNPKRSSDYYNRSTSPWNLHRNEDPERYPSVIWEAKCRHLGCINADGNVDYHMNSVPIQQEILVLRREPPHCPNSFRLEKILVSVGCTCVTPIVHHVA
Assay: SPR (Biacore T200), antibody captured by anti-human IgG Fc, antigen in solution
We begin with a simple list: items and their reported kon.
Numbers only; they are read as M⁻¹ s⁻¹.

{"binder": "IL17-h10F7M-A11 hIgG1/K mut (antibody, V domains shown, Full length human IgG1/kappa, IgG1 mut(234,235); also called h10F7-A11; J439M1S2(H)3 #A11) VH: EVQLVQSGAEVKKPGSSVKVSCKASGYTFTDYEIHWVRQAPGQGLEWIGVNDPESGGTFYNQKFDGRVTLSADESTSTAYMELSSLRSEDTAVYYCTRYDKYWSFEGMDYWGQGTTVTVSS VL: DIQMTQSPSSLSASVGDRVTITCRASSGIISYIDWFQQKPGKAPKRLIYATFDLASGVPSRFSGSGSGTDYTLTISSLQPEDFATYYCRQVGSYPETFGQGTKLEIK", "units_symbol": "M⁻¹ s⁻¹", "test_value": "3.64e+06"}
{"binder": "IL17-h10F7M-A16 hIgG1/K mut (antibody, V domains shown, Full length human IgG1/kappa, IgG1 mut(234,235); also called h10F7-A16; J439M1S2(H)3 #A16) VH: EVQLVQSGAEVKKPGSSVKVSCKASGYTFSDYEIHWVRQAPGQGLEWMGVNDPESGGTFYNQKFDGRVTLTADESTSTAYMELSSLRSEDTAVYYCTRYDKWYSFEGMDIWGQGTTVTVSS VL: DIQMTQSPSSLSASVGDRVTITCSASQGIRSYIDWFQQKPGKSPKRLIYATFDLASGVPSRFSGSGSGTDYTLTISSLQPEDFATYYCRQVGNYPGTFGQGTKLEIK", "units_symbol": "M⁻¹ s⁻¹", "test_value": "2.99e+06"}

# input for lookup
Req: Looking for the measured kon of IL17-h10F7M11 hIgG1/K mut (antibody, V domains shown, Full length human IgG1/kappa, IgG1 mut(234,235); also called J439M1S3R5#11; PR-1263009) VH: EVQLVQSGAEVKKPGSSVKVSCKASGYTFTDYEIHWVRQAPGQGLEWMGVNDPESGGTFYNQKFDGRVTLTADESTSTAYMELSSLRSEDTAVYYCTRYSKWDSFDGMDYWGQGTTVTVSS VL: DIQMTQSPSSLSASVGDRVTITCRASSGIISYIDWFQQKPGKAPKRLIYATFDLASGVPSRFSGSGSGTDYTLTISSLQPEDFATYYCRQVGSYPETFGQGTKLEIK , can you help?
Resp: 4.53e+06

Values compiled from patent US20140161804A1.
